molecular target: CD3 subunits (CD3E, CD3G, CD3D, CD3Z) (human, UniProt P07766 23-207; P09693 23-182; P04234 22-171; P20963 22-164); assay: cell-based or functional assay
Sequence (P07766 23-207, chain 1 of 4): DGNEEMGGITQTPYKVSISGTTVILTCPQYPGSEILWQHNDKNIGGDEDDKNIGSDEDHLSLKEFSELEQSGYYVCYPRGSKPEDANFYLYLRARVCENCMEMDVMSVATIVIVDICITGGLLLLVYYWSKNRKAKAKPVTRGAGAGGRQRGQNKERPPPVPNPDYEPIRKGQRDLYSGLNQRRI
Sequence (P09693 23-182, chain 2 of 4): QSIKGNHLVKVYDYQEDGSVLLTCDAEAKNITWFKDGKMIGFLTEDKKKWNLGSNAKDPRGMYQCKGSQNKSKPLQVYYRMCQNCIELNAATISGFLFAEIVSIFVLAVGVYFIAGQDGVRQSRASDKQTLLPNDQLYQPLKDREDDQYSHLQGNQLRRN
Sequence (P04234 22-171, chain 3 of 4): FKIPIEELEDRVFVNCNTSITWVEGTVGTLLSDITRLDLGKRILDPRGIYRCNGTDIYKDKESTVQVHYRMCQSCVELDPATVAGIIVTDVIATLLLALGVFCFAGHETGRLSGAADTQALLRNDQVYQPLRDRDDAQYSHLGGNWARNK
Sequence (P20963 22-164, chain 4 of 4): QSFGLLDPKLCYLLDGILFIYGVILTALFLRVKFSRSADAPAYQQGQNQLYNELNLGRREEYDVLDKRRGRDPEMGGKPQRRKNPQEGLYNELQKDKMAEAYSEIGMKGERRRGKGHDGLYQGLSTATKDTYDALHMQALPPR
endpoint.label: CD3-recruiting activity (CD3-positive proportion, N=3), CD3-stably expressing 293T cells

| binder | endpoint.value |
| --- | --- |
| modified TCR consisting of β9 and α8 (TCR) TCR alpha: CANAFNNSIIPEDTFFPSPESSCDVKLVEKSFETDTNLNFQNLSVIGFRILLLKVAGFNLLMTLRLWSS TCR beta: FRCQVQFYGLSENDEWTQDRAKPVTQIVSAEAWGRADCGFTSESYQQGVLSATILYEILLGKATLYAVLVSALVLMAMVKRKDSRG | ≥ 20% |
| modified TCR of the combination of βCR and α10 (TCR) TCR alpha: IPEDTFFPSPESSCDVKLVEKSFETDTNLNFQNLSVIGFRILLLKVAGFNLLMTLRLWSS TCR beta: EDLKNVFPPEVAVFEPSEAEISHTQKATLVCLATGFYPDHVELSWWVNGKEVHSGVSTDPQPLKEQPALNDSRYCLSSRLRVSATFWQNPRNHFRCQVQFYGLSENDEWTQDRAKPVTQIVSAEAWGRADCGFTSESYQQGVLSATILYEILLGKATLYAVLVSALVLMAMVKRKDSRG | ≥ 80% |
| modified TCR consisting of β12 and α8 (TCR) TCR alpha: CANAFNNSIIPEDTFFPSPESSCDVKLVEKSFETDTNLNFQNLSVIGFRILLLKVAGFNLLMTLRLWSS TCR beta: AKPVTQIVSAEAWGRADCGFTSESYQQGVLSATILYEILLGKATLYAVLVSALVLMAMVKRKDSRG | ≥ 20% |
| modified TCR consisting of β12 and α9 (TCR) TCR alpha: FNNSIIPEDTFFPSPESSCDVKLVEKSFETDTNLNFQNLSVIGFRILLLKVAGFNLLMTLRLWSS TCR beta: AKPVTQIVSAEAWGRADCGFTSESYQQGVLSATILYEILLGKATLYAVLVSALVLMAMVKRKDSRG | ≥ 20% |
| modified TCR consisting of β2 and α6 (TCR) TCR alpha: KSNSAVAWSNKSDFACANAFNNSIIPEDTFFPSPESSCDVKLVEKSFETDTNLNFQNLSVIGFRILLLKVAGFNLLMTLRLWSS TCR beta: ATLVCLATGFYPDHVELSWWVNGKEVHSGVSTDPQPLKEQPALNDSRYCLSSRLRVSATFWQNPRNHFRCQVQFYGLSENDEWTQDRAKPVTQIVSAEAWGRADCGFTSESYQQGVLSATILYEILLGKATLYAVLVSALVLMAMVKRKDSRG | ≥ 20% |
| modified TCR consisting of β12 and α5 (TCR) TCR alpha: LDMRSMDFKSNSAVAWSNKSDFACANAFNNSIIPEDTFFPSPESSCDVKLVEKSFETDTNLNFQNLSVIGFRILLLKVAGFNLLMTLRLWSS TCR beta: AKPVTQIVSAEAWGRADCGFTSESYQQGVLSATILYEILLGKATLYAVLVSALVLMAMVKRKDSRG | ≥ 20% |
